Biological target: Human cathepsin B (Homo sapiens)
Construct: purchased Calbiochem Corp
Test: Measurement of cathepsin B inhibitory activity
Format: biochemical
Details: selectivity ratio B/K
*1 amine or outer side, *2 acyl side, *3 side chain or, on linkers, in order; H or OH if unused. Where a SMILES comes first, the peptide text is derived from it. [ ]: non-standard residue; d: D form. The star is where a group is joined. Ac6c = NC1(C(=O)O)CCCCC1; Morpholide = C1CN(*)CCO1; Nle = CCCC[C@H](N)C(=O)O; Cbz = O=C(OCc1ccccc1)*; CO = O=C([*:1])[*:2]
observation-type: B/K (ratio of IC50 cathepsin B to cathepsin K)

Solved entries (count: 3):
CCCC[C@@H](C=O)NC(=O)[C@H](CC(C)C)NC(=O)OCc1ccccc1 [Reference Example 149]    11
CCCC[C@@H](C=O)NC(=O)[C@H](CC(C)C)NC(=O)N1CCOCC1 [Reference Example 150]    4.3
CC(C)C[C@H](NC(=O)OCc1ccccc1)C(=O)N[C@H](C=O)C(C)C [Reference Example 148] (Cbz-Leu-Val-aldehyde)    58

Entry CC(C)[C@@H](C=O)NC(=O)C1(NC(=O)c2ccco2)CCCCC1 [Reference Example 146] has what B/K (ratio of IC50 cathepsin B to cathepsin K)?
87

Again, but for CC(C)C[C@H](NC(=O)c1ccco1)C(=O)N[C@H](C=O)C(C)C [Reference Example 151]
30

Then CC(C)[C@@H](C=O)NC(=O)C1(NC(=O)OCc2ccccc2)CCCCC1 [Reference Example 144] (Cbz-[Ac6c]-Val-aldehyde) ?
230

Same question for CCCC[C@@H](C=O)NC(=O)C1(NC(=O)OCc2ccccc2)CCCCC1 [Reference Example 145] (Cbz-[Ac6c]-[Nle]-aldehyde) please.
35

Do the same for CCCC[C@@H](C=O)NC(=O)C1(NC(=O)N2CCOCC2)CCCCC1 [Reference Example 147] ({Morpholide-CO}-[Ac6c]-[Nle]-aldehyde) please
12

Cited source: patent US8785631B2
